I'd be grateful if you could share measured IC50 for these entries.
# System: Pseudomonas aeruginosa
# test-details: Antibacterial activity against Pseudomonas aeruginosa assessed as LPS neutralisation by LAL assay
# Assay type: functional, organism-based
Express the result in nM but write the number alone.

## Task Look up IC50: CC(C)(C)c1cc2c(OCCCCN)c(c1)Cc1cc(C(C)(C)C)cc(c1OCCCCNC(=N)N)Cc1cc(C(C)(C)C)cc(c1OCCCCNC(=N)N)Cc1cc(C(C)(C)C)cc(c1OCCCCNC(=N)N)C2
## Result 800

## Task Another compound to look at: CC(C)(C)c1cc2c(OCCCCN)c(c1)Cc1cc(C(C)(C)C)cc(c1OCCCCN)Cc1cc(C(C)(C)C)cc(c1OCCCCN)Cc1cc(C(C)(C)C)cc(c1OCCCCN)C2
## Result 500

###

Field: IC50. Provide a value for each of the molecules that follow.
# System: Pseudomonas aeruginosa
# test-details: Antibacterial activity against Pseudomonas aeruginosa assessed as LPS neutralisation by LAL assay
# Assay type: functional, organism-based
API: value field is a number in nM; no unit string.

## Task Given the molecule CC(C)(C)c1cc2c(OCC(=O)NCCN)c(c1)Cc1cc(C(C)(C)C)cc(c1OCC(=O)NCCN)Cc1cc(C(C)(C)C)cc(c1OCC(=O)NCCN)Cc1cc(C(C)(C)C)cc(c1OCC(=O)NCCN)C2 , what is its reported IC50?
## Result 800

## Task Entry CC(C)(C)c1cc2c(OCc3cn(CCN)nn3)c(c1)Cc1cc(C(C)(C)C)cc(c1OCc1cn(CCN)nn1)Cc1cc(C(C)(C)C)cc(c1OCc1cn(CCN)nn1)Cc1cc(C(C)(C)C)cc(c1OCc1cn(CCN)nn1)C2 please
## Result 2600

###

# Tested on: Pseudomonas aeruginosa
# test-details: Antibacterial activity against Pseudomonas aeruginosa assessed as LPS neutralisation by LAL assay
# Format: functional, organism-based
measured-quantity: IC50 (µM)
Just the number in µM, nothing appended.

## Task Look up IC50: CC(C)Cc1cc2c(OCC(=O)NCCN(C)C)c(c1)Cc1cc(CC(C)C)cc(c1OCC(=O)NCCN(C)C)Cc1cc(C(C)C)cc(c1OCC(=O)NCCN(C)C)Cc1cc(CC(C)C)cc(c1OCC(=O)NCCN(C)C)C2
## Result 4.2

## Task Proceed to CC(C)(C)c1cc2c(OCc3cn(CCN)nn3)c(c1)Cc1cc(C(C)(C)C)cc(c1OCc1cn(CCN)nn1)Cc1cc(OCc3cnnn3CCN)cc(c1C(C)(C)C)Cc1cc(C(C)(C)C)cc(c1OCc1cn(CCN)nn1)C2
## Result 1

## Task CC(C)(C)c1cc2c(OCCCCNC(=N)N)c(c1)Cc1cc(C(C)(C)C)cc(c1OCCCCNC(=N)N)Cc1cc(C(C)(C)C)cc(c1OCCCCNC(=N)N)Cc1cc(C(C)(C)C)cc(c1OCCCCNC(=N)N)C2 , same question.
## Result 1.5
